Experiment: Phase 1 SAD/MAD study: plasma pharmacokinetics of Compound 1a (LC-MS-MS, noncompartmental analysis)
Assay type: in vivo, human
Settings: human, plasma, po, 120 mg, SAD 120 mg oral, fasted, average, plasma; read-out: Tmax
Protocol: Pharmacokinetics: Human K2-ethylenediaminetetraacetic acid (K2-EDTA) plasma samples were analyzed for Compound 1a by a validated method over a range of 1.0 to 1000 ng/mL based on the analysis of 100 μL of sample. Human plasma containing Compound 1a and the internal standard, Compound 1a-D4, was extracted using liquid-liquid extraction and analyzed by a Sciex API 4000 LC-MS-MS equipped with an HPLC column. […]
readout label: Tmax (h)
Output spec: scalar in h, unitless text.

Tmax for O.O=C([O-])c1nn[nH]c1Oc1ccc(-c2ccc(C3CC(F)(F)C3)cc2)cc1.[Na+] [Compound 1a] is 2.29

* * *

test: Phase 1 SAD/MAD study: plasma pharmacokinetics of Compound 1a (LC-MS-MS, noncompartmental analysis); format: in vivo, human; settings: human, plasma, po, 360 mg, SAD 360 mg oral, fasted, average
readout label: AUC(0-inf) (ng·h/mL)
Output spec: scalar in ng·h/mL, unitless text.

AUC(0-inf) for O.O=C([O-])c1nn[nH]c1Oc1ccc(-c2ccc(C3CC(F)(F)C3)cc2)cc1.[Na+] [Compound 1a] is 83300

* * *

test: Phase 1 SAD/MAD study: plasma pharmacokinetics of Compound 1a (LC-MS-MS, noncompartmental analysis); type: in vivo, human; conditions: human, plasma, oral, 120 mg, single dose 120 mg, healthy volunteers, geometric mean (geometric CV %); read-out: Tmax
readout label: Tmax (h)
Output spec: scalar in h, unitless text.

Tmax for O.O=C([O-])c1nn[nH]c1Oc1ccc(-c2ccc(C3CC(F)(F)C3)cc2)cc1.[Na+] [Compound 1a] is 2.3

* * *

test: Phase 1 SAD/MAD study: plasma pharmacokinetics of Compound 1a (LC-MS-MS, noncompartmental analysis); type: in vivo, human; details: human, plasma, po, 2000 mg, SAD 2,000 mg oral, fasted, average
readout label: AUC(0-inf)
Please state the number and follow it with the unit.

AUC(0-inf) for O.O=C([O-])c1nn[nH]c1Oc1ccc(-c2ccc(C3CC(F)(F)C3)cc2)cc1.[Na+] [Compound 1a] is 312 µg·h/mL

* * *

experiment: Phase 1 SAD/MAD study: plasma pharmacokinetics of Compound 1a (LC-MS-MS, noncompartmental analysis); type: in vivo, human; details: human, plasma, oral, 360 mg, single dose 360 mg, healthy volunteers, geometric mean (geometric CV %); read-out: t1/2 (converted)
readout label: half-life (h)
Output spec: scalar in h, unitless text.

half-life for O.O=C([O-])c1nn[nH]c1Oc1ccc(-c2ccc(C3CC(F)(F)C3)cc2)cc1.[Na+] is 26

* * *

assay: Phase 1 SAD/MAD study: plasma pharmacokinetics of Compound 1a (LC-MS-MS, noncompartmental analysis); assay type: in vivo, human; conditions: human, plasma, oral, 125 mg, MAD 125 mg q12h for 7 days, average, plasma; read-out: Day 7 Cmax
readout label: Cmax at 7 days (ng/mL)
Output spec: scalar in ng/mL, unitless text.

Cmax at 7 days for O.O=C([O-])c1nn[nH]c1Oc1ccc(-c2ccc(C3CC(F)(F)C3)cc2)cc1.[Na+] [Compound 1a] is 6450

* * *

Assay: Phase 1 SAD/MAD study: plasma pharmacokinetics of Compound 1a (LC-MS-MS, noncompartmental analysis)
Assay type: in vivo, human
Settings: human, plasma, po, 40 mg, SAD 40 mg oral, fasted, average, plasma; read-out: AUC0-24
Protocol: Pharmacokinetics: Human K2-ethylenediaminetetraacetic acid (K2-EDTA) plasma samples were analyzed for Compound 1a by a validated method over a range of 1.0 to 1000 ng/mL based on the analysis of 100 μL of sample. Human plasma containing Compound 1a and the internal standard, Compound 1a-D4, was extracted using liquid-liquid extraction and analyzed by a Sciex API 4000 LC-MS-MS equipped with an HPLC column. […]
readout label: AUC(0-t) (ng·h/mL)
Output spec: scalar in ng·h/mL, unitless text.

AUC(0-t) for O.O=C([O-])c1nn[nH]c1Oc1ccc(-c2ccc(C3CC(F)(F)C3)cc2)cc1.[Na+] [Compound 1a] is 12100
